system: 967376-340-R-J2-PDC multicell spheroid viability; test: Anticancer human tumor 967376-340-R-J2-PDC patient-derived colon adenocarcinoma cell line growth inhibition [PI3K]; conditions: second compound 0.01 µM; first compound 0.00316 µM; active compounds read low
observation.type: viability, T/C (%)
Answers are plain numbers, in %.

Field: example entries. Status: answers known.
[
  {
    "compound": "CCN1CCN(Cc2ccc(Nc3ncc(F)c(-c4cc(F)c5nc(C)n(C(C)C)c5c4)n3)nc2)CC1 + COc1c(OCCCN2CCOCC2)ccc2c3n(c(=NC(=O)c4cnc(N)nc4)nc12)CCN3",
    "measured.result": 85.3
  },
  {
    "compound": "CC(=O)c1c(C)c2cnc(Nc3ccc(N4CCNCC4)cn3)nc2n(C2CCCC2)c1=O + CC(Nc1ccc2c(c1)OCCn1cc(N3C(=O)OCC3C(F)F)nc1-2)C(N)=O",
    "measured.result": 96.4
  }
]

From here, focus on the item given below.
### Prompt Given Cn1ncnc1[C@H]1c2n[nH]c(=O)c3cc(F)cc(c23)N[C@@H]1c1ccc(F)cc1 + COc1c(OCCCN2CCOCC2)ccc2c3n(c(=NC(=O)c4cnc(N)nc4)nc12)CCN3 , report its viability, T/C on 967376-340-R-J2-PDC multicell spheroid viability.
### Response 81.1

* * *

Field: viability, T/C. Provide a value for each of the compounds that follow.
system: 967376-340-R-J2-PDC multicell spheroid viability; experiment: Anticancer human tumor 967376-340-R-J2-PDC cell line growth inhibition [PI3K]; conditions: second compound 10 µM; first compound 1 µM; active compounds read low;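 note: luminescence used as surrogate of cell viability; spheroids exposed to agents for 7 days before read-out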
Give bare numbers, in %.

[
  {
    "compound": "C=CC(=O)N1CCN(c2nc(=O)n(-c3c(C)ccnc3C(C)C)c3nc(-c4c(O)cccc4F)c(F)cc23)C(C)C1 (stereo not given) + Cc1nc(NC(=O)N2CCCC2C(N)=O)sc1-c1ccnc(C(C)(C)C(F)(F)F)c1",
    "unit.label": "%",
    "measured.result": 56.3
  },
  {
    "compound": "Cn1ncc(Cl)c1-c1cc(C(=O)NC(CN)Cc2cccc(F)c2)sc1Cl (stereo not given) + Cc1nc(NC(=O)N2CCCC2C(N)=O)sc1-c1ccnc(C(C)(C)C(F)(F)F)c1",
    "unit.label": "%",
    "measured.result": 40.8
  },
  {
    "compound": "CC1(C)CCC(Nc2ncc(C(F)(F)F)c(-c3c[nH]c4c(P(C)(C)=O)c(C#N)ccc34)n2)CN1 (stereo not given) + Cc1nc(NC(=O)N2CCCC2C(N)=O)sc1-c1ccnc(C(C)(C)C(F)(F)F)c1",
    "unit.label": "%",
    "measured.result": 34.9
  },
  {
    "compound": "Cn1nccc1Nc1nccc(-c2ccn(C(CO)c3ccc(Cl)c(F)c3)c(=O)c2)n1 (stereo not given) + Cc1nc(NC(=O)N2CCCC2C(N)=O)sc1-c1ccnc(C(C)(C)C(F)(F)F)c1",
    "unit.label": "%",
    "measured.result": 36.1
  }
]

// moving on: another record for viability, T/C
### Prompt Provide viability, T/C value for the following compound: CCN1CCN(Cc2ccc(Nc3ncc(F)c(-c4cc(F)c5nc(C)n(C(C)C)c5c4)n3)nc2)CC1 + CC(Nc1ncnc2nc[nH]c12)c1cc2cccc(Cl)c2c(=O)n1-c1ccccc1
### Response 48.6
